Assay: molar heat capacity at constant pressure
Settings: 267 K; 101.33 kPa; Liquid; DSC
Measured quantity: molar heat capacity at constant pressure (J/K/mol)

INSERT INTO assay_data (molecule, measured_quantity, observed_result) VALUES
  ('CCCCCCCC(=O)OCCCC [butyl octanoate]', 'molar heat capacity at constant pressure', 386.6),
  ('CCCCCCCCOC(=O)CCC [octyl butanoate]', 'molar heat capacity at constant pressure', 374.13),
  ('CCCCCCOC(=O)CCCCC', 'molar heat capacity at constant pressure', 385.77),
  ('CCCCCCCCCC(=O)OCC [ethyl decanoate]', 'molar heat capacity at constant pressure', 375.79);

Data provenance: the NIST ThermoML archive (doi:10.1016/j.jct.2018.08.014)
